log10 IC50 overview
- STUDY SYSTEM: KRAS-G12C (C51S/C80L/C118S) (Homo sapiens, UniProt P01116, C118S/C51S/C80L/G12C)
- Sequence (P01116 with tags, fused parts or gaps isoform P01116-2 G12C/C51S/C80L/C118S): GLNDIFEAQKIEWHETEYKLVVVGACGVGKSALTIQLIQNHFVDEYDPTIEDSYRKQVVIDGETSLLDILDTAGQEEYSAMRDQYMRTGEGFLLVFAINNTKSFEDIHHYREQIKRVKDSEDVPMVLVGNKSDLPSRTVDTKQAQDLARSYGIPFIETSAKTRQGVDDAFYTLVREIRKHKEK
- ASSAY SUMMARY: SOS-catalyzed nucleotide exchange assay (Procedure A, TR-FRET), KRAS-G12C
- Type: biochemical
- CONDITION INFO: nucleotide exchange, Procedure A; read-out: KRAS G12C GNE IC50
Hi team, quick reminder: these entries are log10 of IC50 (nM).

COMPOUND	STUDY SYSTEM	OBSERVED
C#Cc1c(F)ccc2cc(O)cc(-c3nccc4c5c(N6CCOC[C@@](C)(O)C6)nc(OC[C@@]67CCCN6C[C@H](F)C7)nc5n(C)c34)c12 [Ex-18]	KRAS-G12C (C51S/C80L/C118S) (Homo sapiens, UniProt P01116, C118S/C51S/C80L/G12C)	1.02

Q) Give the measured log10 IC50 of C[C@@]1(O)COCCN(c2nc(OC[C@@]34CCCN3C[C@H](F)C4)nc3sc4c(-c5c(C6(F)CC6)c(Cl)cc6[nH]ncc56)nccc4c23)C1 [Ex-52] .
A) 1.48

Q) Give the measured log10 IC50 of C[C@@]1(O)COCCN(c2nc(OC[C@]3(CN4CC5(CCCOC5)C4)CC3(F)F)nc3sc4c(-c5c(C6(F)CC6)c(Cl)cc6[nH]ncc56)nccc4c23)C1 [Ex-249] .
A) 1.06

Q) Give the measured log10 IC50 of Cc1cc2[nH]ncc2c(-c2nccc3c2sc2nc(OC[C@@]45CCCN4C[C@H](F)C5)nc(N4CCOC[C@@](C)(O)C4)c23)c1C1=CCCC1 [Ex-140] .
A) 2.56

Q) Give the measured log10 IC50 of CC(C)c1c(Cl)cc2[nH]ncc2c1-c1nccc2c1sc1nc(OC[C@@]34CCCN3C[C@H](F)C4)nc(N3CCOC[C@@](C)(O)C3)c12 [Ex-145] .
A) 1.65

Q) Give the measured log10 IC50 of Cc1cc2[nH]nc(C#N)c2c(-c2nccc3c4c(N5CCOC[C@@](C)(O)C5)nc(OC[C@@]56CCCN5C[C@H](F)C6)nc4n(C)c23)c1C(F)F (single isomer, unassigned) [Ex-9] .
A) 2.75

----------
log10 of IC50 overview
- Tested on: MKN-1 cells
- ASSAY SUMMARY: Cellular phospho-ERK assay, MKN-1 cells (amplified wild-type KRAS)
- Type: cell-based
- CONDITION INFO: Homo sapiens, 2 hours compound incubation, read-out: MKN1 pERK IC50
Hi team, quick reminder: these entries are log10 of IC50 (nM).

Known results for molecules:
MOLECULE	log10 of IC50
C=C(C)c1c(C)cc2[nH]ncc2c1-c1nccc2c1sc1nc(OC[C@@]34CCCN3C[C@H](F)C4)nc(N3CCOC[C@@](C)(O)C3)c12	2.07
CC1(O)COCCN(c2nc(OCC3(CN4CC5C(F)C5C4)CC3(F)F)nc3sc4c(-c5c(C6CC6)c(Cl)cc6[nH]ncc56)nccc4c23)C1 (stereo not drawn)	2.23
C[C@@]1(O)COCCN(c2nc(OC[C@@]34CCCN3C/C(=C\F)C4)nc3sc4c(-c5c(C6CC6)c(Cl)cc6[nH]ncc56)nccc4c23)C1	1.80

Q) Checklist item: log10 of IC50 tested on MKN-1 cells, entry CCC1CCc2cc3[nH]ncc3c(-c3nccc4c3sc3nc(OC[C@@]56CCCN5C[C@H](F)C6)nc(N5CCOC[C@@](C)(O)C5)c34)c21 (stereo partly drawn) , value?
A) 1.33

Q) Checklist item: log10 of IC50 tested on MKN-1 cells, entry "C[C@@]1(O)COCCN(c2nc(OC[C@]3(CN4CC5(CCOC5)C4)CC3(F)F)nc3sc4c(-c5c(C6(F)CC6)c(Cl)cc6[nH]ncc56)nccc4c23)C1" , value?
A) 1.64

Q) Checklist item: log10 of IC50 tested on MKN-1 cells, entry "C[C@H](N(C)C)[C@@]1(COc2nc(N3CCOC[C@@](C)(O)C3)c3c(n2)sc2c(-c4c(C5CC5)c(Cl)cc5[nH]ncc45)nccc23)CC1(F)F" , value?
A) 1.51

Q) Checklist item: log10 of IC50 tested on MKN-1 cells, entry CCC1(O)COCCN(c2nc(OC[C@@]34CCCN3C[C@H](F)C4)nc3sc4c(-c5c(C(F)(F)F)c(C)cc6[nH]ncc56)nccc4c23)C1 (stereo partly drawn) , value?
A) 2.57

Q) Checklist item: log10 of IC50 tested on MKN-1 cells, entry "C#Cc1cc(F)cc2cc3[nH]ncc3c(-c3nccc4c3sc3nc(OC[C@@]56CCCN5C[C@H](F)C6)nc(N5CCOC[C@@](C)(O)C5)c34)c12" , value?
A) 1.62

----------
- STUDY SYSTEM: KRAS-WT (Homo sapiens, UniProt P01116)
- Sequence (P01116 with tags, fused parts or gaps isoform P01116-2): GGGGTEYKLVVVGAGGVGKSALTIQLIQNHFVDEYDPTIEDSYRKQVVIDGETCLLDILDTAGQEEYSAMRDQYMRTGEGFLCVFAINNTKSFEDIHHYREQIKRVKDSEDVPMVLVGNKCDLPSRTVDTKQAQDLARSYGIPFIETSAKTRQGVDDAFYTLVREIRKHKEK
- ASSAY SUMMARY: SOS-catalyzed nucleotide exchange assay (Procedure A, TR-FRET), KRAS-WT
- Type: biochemical
- CONDITION INFO: nucleotide exchange, read-out: KRAS WT GNE IC50
Rule: IC50 below 70 nM gives label 1, anything at or above gives label 0.

COMPOUND	QUALITATIVE LABEL
C[C@H]1CCN1C[C@@]1(COc2nc(N3CCOC[C@@](C)(O)C3)c3c(n2)sc2c(-c4c(C5(F)CC5)c(Cl)cc5[nH]ncc45)nccc23)CC1(F)F [Ex-253]	label 1

Q) Lab log: compare recorded IC50 with 70 nM; is it strictly lower for C/C=C/c1c(C)cc2[nH]ncc2c1-c1nccc2c1sc1nc(OC[C@@]34CCCN3C[C@H](F)C4)nc(N3CCOC[C@@](C)(O)C3)c12 [Ex-64] ?
A) label 0

Q) Lab log: compare recorded IC50 with 70 nM; is it strictly lower for C=C(F)c1c(C(F)(F)F)cc2[nH]ncc2c1-c1nccc2c1sc1nc(OC[C@@]34CCCN3C[C@H](F)C4)nc(N3CCOC[C@@](C)(O)C3)c12 [Ex-58] ?
A) label 1

Q) Lab log: compare recorded IC50 with 70 nM; is it strictly lower for COC(=O)c1cc2[nH]ncc2c(-c2nccc3c2sc2nc(OC[C@@]45CCCN4C[C@H](F)C5)nc(N4CCOC[C@@](C)(O)C4)c23)c1C1CC1 [Ex-49] ?
A) label 0

Q) Lab log: compare recorded IC50 with 70 nM; is it strictly lower for Cc1cc2[nH]ncc2c(-c2nccc3c4c(N5CCC[C@@](C)(O)C5)nc(OC[C@@]56CCCN5C[C@H](F)C6)nc4n(C)c23)c1C(F)(F)F (single isomer, unassigned) [Ex-5] ?
A) label 0

Q) Lab log: compare recorded IC50 with 70 nM; is it strictly lower for C[C@@H]1CCN1C[C@@]1(COc2nc(N3CCOC[C@@](C)(O)C3)c3c(n2)sc2c(-c4c(C5(F)CC5)c(Cl)cc5[nH]ncc45)nccc23)CC1(F)F [Ex-261] ?
A) label 0

----------
- STUDY SYSTEM: KRAS-WT (Homo sapiens, UniProt P01116)
- ASSAY SUMMARY: SOS-catalyzed nucleotide exchange assay (Procedure A, TR-FRET), KRAS-WT
- Type: biochemical
- CONDITION INFO: KRAS WT GNE IC50, nucleotide exchange
IC50 overview
Output should be the measured figure followed by the unit it is expressed in.

STRUCTURE AS SMILES	OBSERVED
C[C@@]1(O)COCCN(c2nc(OC[C@@]34CCCN3C[C@H](F)C4)nc3sc4c(-c5c6cc(F)ccc6cc6[nH]ncc56)nccc4c23)C1	72.4 nM
C[C@@]1(O)COCCN(c2nc(OC[C@]3(CN4CC5(CCC5)C4)CC3(F)F)nc3sc4c(-c5c(C6(F)CC6)c(Cl)cc6[nH]ncc56)nccc4c23)C1	16.5 nM

Q) Give the measured IC50 of "C[C@@]1(O)COCCN(c2nc(OC[C@@]34CCCN3C[C@H](F)C4)nc3[se]c4c(-c5c(C6CC6)c(Cl)cc6[nH]ncc56)nccc4c23)C1" .
A) 22.3 nM

Q) Give the measured IC50 of "C[C@@]1(O)COCCN(c2nc(OC[C@@]34CCCN3C[C@H](F)C4)nc3sc4c(-c5c6c(cc7[nH]ncc57)CCC6=C(F)F)nccc4c23)C1" .
A) 77.4 nM

Q) Give the measured IC50 of "Cc1cc2[nH]ncc2c(-c2nccc3c2[se]c2nc(OC[C@@]45CCCN4C[C@H](F)C5)nc(N4CCOC[C@@](C)(O)C4)c23)c1C(F)(F)F" .
A) 69.1 nM

----------
- STUDY SYSTEM: KRAS-G12V (Homo sapiens, UniProt P01116, G12V)
- Sequence (P01116 with tags, fused parts or gaps isoform P01116-2 G12V): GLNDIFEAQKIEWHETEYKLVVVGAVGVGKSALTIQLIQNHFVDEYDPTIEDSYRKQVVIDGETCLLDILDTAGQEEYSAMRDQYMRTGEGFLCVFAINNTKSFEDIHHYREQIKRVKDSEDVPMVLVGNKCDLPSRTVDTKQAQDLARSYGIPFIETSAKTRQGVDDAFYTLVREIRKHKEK
- ASSAY SUMMARY: SOS-catalyzed nucleotide exchange assay (Procedure A, TR-FRET), KRAS-G12V
- Format: biochemical
- CONDITION INFO: nucleotide exchange, read-out: KRAS G12V GNE IC50
IC50 overview
Output should be the measured figure followed by the unit it is expressed in.

Known results for compounds:
COMPOUND	STUDY SYSTEM	IC50
C#Cc1c(F)ccc2cc(O)cc(-c3nccc4c5c(N6CCOC[C@@](C)(O)C6)nc(OC[C@@]67CCCN6C[C@H](F)C7)nc5n(C)c34)c12 [Ex-18]	KRAS-G12V (Homo sapiens, UniProt P01116, G12V)	3.85 nM
CO[C@@H]1CN2CCC[C@@]2(COc2nc(N3CCOC[C@@](C)(O)C3)c3c(n2)sc2c(-c4c(C5CC5)c(Cl)cc5[nH]ncc45)nccc23)C1 [Ex-228]	KRAS-G12V (Homo sapiens, UniProt P01116, G12V)	38.2 nM
Cc1cc(-c2nccc3c2sc2nc(OC[C@@]45CCCN4C[C@H](F)C5)nc(N4CCOC[C@@](C)(O)C4)c23)c2cn[nH]c2c1 [Ex-37]	KRAS-G12V (Homo sapiens, UniProt P01116, G12V)	1490 nM
C[C@@]1(O)COCCN(c2nc(OC[C@@]34CCCN3C/C(=C\F)C4)nc3sc4c(-c5c(C6CC6)c(C(F)(F)F)cc6[nH]ncc56)nccc4c23)C1 [Ex-87]	KRAS-G12V (Homo sapiens, UniProt P01116, G12V)	31.4 nM

Q) Checklist item: IC50 tested on KRAS-G12V (Homo sapiens, UniProt P01116, G12V), entry Cc1cc2[nH]ncc2c(-c2nccc3c2sc2nc(OC[C@@]45CCCN4C[C@H](F)C5)nc(N4CCOC[C@@](C)(O)C4)c23)c1OC(F)(F)Cl [Ex-39] , value?
A) 30.9 nM

Q) Checklist item: IC50 tested on KRAS-G12V (Homo sapiens, UniProt P01116, G12V), entry Cc1cc2[nH]ncc2c(-c2cncc3c2sc2nc(OC[C@@]45CCCN4C[C@H](F)C5)nc(N4CCOC[C@@](C)(O)C4)c23)c1C(F)(F)F [Ex-273] , value?
A) 574 nM

These entries and their values trace back to patent US20260176289A1.
